Cited source: ChEMBL document CHEMBL3813664

procedureDetails: Therapeutic index, ratio of IC50 for HEK293 cells to IC50 for human MCF7 cells
Format: cell-based
testContext: HEK293 cells versus MCF7 cells, read-out: Ratio IC50
observedProperty: selectivity ratio
When you answer, write just the number.

Noted for Oc1ccc(-c2ccccc2)cc1 : its selectivity ratio reads 1

Noted for COc1ccc(-c2cccc(O)c2)cc1OC : its selectivity ratio reads 0.5

Noted for COc1ccc(-c2ccccc2N)cc1OC : its selectivity ratio reads 3

Noted for Nc1ccccc1-c1ccccc1O : its selectivity ratio reads 1

Noted for COc1ccc(-c2ccc(N)cc2)cc1OC : its selectivity ratio reads 4

Noted for COc1ccc(-c2cccc(O)c2)c(OC)c1 : its selectivity ratio reads 0.6

Noted for COc1cccc(-c2ccc(O)cc2)c1 : its selectivity ratio reads 0.9

Noted for COc1ccccc1-c1ccc(O)cc1 : its selectivity ratio reads 0.8

Noted for COc1ccccc1-c1ccccc1 : its selectivity ratio reads 33

Noted for Oc1cccc(-c2cccc(O)c2)c1 : its selectivity ratio reads 1.3

Noted for C=CCc1ccc(O)c(-c2ccc(O)c(CC=C)c2)c1 : its selectivity ratio reads 1.9

---

So I've got a bunch of compounds here, and I need their IC50 values.
Tested on: MCF7
procedureDetails: Cytotoxicity against human MCF7 cells assessed as reduction in cell growth after 3 days by MTT assay
Type: functional, cell-based
testContext: MCF7, 72 h
Unit µg/mL implied. Number only.

Noted for Nc1cccc(-c2ccc(O)cc2)c1 : its IC50 reads 6.5

Noted for COc1cccc(-c2ccc(O)cc2)c1 : its IC50 reads 41

Noted for COc1ccccc1-c1ccccc1 : its IC50 reads 1.6

Noted for Oc1cccc(-c2cccc(O)c2)c1 : its IC50 reads 51.6

Noted for C=CCc1ccc(O)c(-c2ccc(O)c(CC=C)c2)c1 [HONOKIOL] : its IC50 reads 5

Noted for Oc1cccc(-c2ccccc2)c1 : its IC50 reads 27.4

Noted for COc1ccc(-c2ccccc2N)c(OC)c1 : its IC50 reads 56

Noted for COc1ccccc1-c1ccc(O)cc1 : its IC50 reads 55

Noted for Nc1cccc(-c2cccc(O)c2)c1 : its IC50 reads 99

Noted for Nc1cccc(-c2ccccc2)c1 : its IC50 reads 60

Noted for COc1ccc(-c2ccc(O)cc2)cc1OC : its IC50 reads 34

Noted for Nc1ccccc1-c1ccccc1O : its IC50 reads 56

Noted for COc1ccc(-c2ccccc2O)cc1OC : its IC50 reads 55

Noted for COc1cccc(-c2ccccc2O)c1 : its IC50 reads 43

Noted for COc1cccc(-c2cccc(O)c2)c1 : its IC50 reads 33

Noted for COc1ccc(-c2ccccc2N)cc1OC : its IC50 reads 18

Noted for COc1ccccc1-c1cccc(O)c1 : its IC50 reads 44

Noted for Nc1ccccc1-c1ccccc1 : its IC50 reads 2.9

Noted for Oc1ccccc1-c1ccccc1O : its IC50 reads 60

Noted for COc1ccc(-c2ccccc2O)cc1 : its IC50 reads 42

Noted for COc1ccc(-c2ccc(O)cc2)c(OC)c1 : its IC50 reads 47

Noted for COc1ccc(-c2ccc(O)cc2)cc1 : its IC50 reads 53

Noted for Oc1ccc(-c2ccc(O)cc2)cc1 : its IC50 reads 17.8

Noted for Nc1cccc(-c2ccccc2O)c1 : its IC50 reads 28

Noted for COc1ccc(-c2ccccc2)cc1OC : its IC50 reads 45

Noted for COc1ccc(-c2cccc(O)c2)cc1 : its IC50 reads 48

Noted for Nc1ccccc1-c1ccc(O)cc1 : its IC50 reads 44.3

Noted for COc1ccc(-c2cccc(O)c2)c(OC)c1 : its IC50 reads 50.2
